test system: MS2 coat protein; experiment: apparent KD of MS2 coat protein; designed switch direction (-1 OFF switch, 1 ON switch): -1; higher = weaker reporter binding; settings: input ligand: none
// reported apparent KD of MS2 coat protein per item
Number only, in nM; omit the unit.

// worked examples, apparent KD of MS2 coat protein included
chain-sequence	apparent KD of MS2 coat protein (nM)
AGCUGUGGCCGAGGAUAUCCACAUGAGGAUCACCCAUGUCGAUACGCCGUUAAAGGCGAUAUAAGGGAGAAGGCGGUCUCAGCA [Eli eng2 - 052] (Eterna round: R96, puzzle: Exclusion NG 2)	10.2
AGUCCUGCGGUGAGGAUAUAUUUGUAGCCAUUCAGGUAGAAGGCACUUGAGGAUCACCCAAGUAAAGAACCAAC [Releat] (Eterna round: R97, puzzle: Brourd's mod of Exclusion 4)	28
UGCAUGUAAGGAUAUGCAUCCGCCAACGAACCGGCGGCACAGCAGAAGGUACAUGAGGAUCACCCAUGUGUCCC [Isonrian] (Eterna round: R96, puzzle: Exclusion 4)	29.8
CCAGGAAGGCAGGAUAUCCAAAGCCGUCCCGGCGGAGAAGGGCUGACUUGAGGAUCACCCAAGUGAUGCCUAAC [Aratquve] (Eterna round: R97, puzzle: Exclusion 6)	14.8

Next sequence, please.
Prompt: Send back MS2 coat protein apparent KD of MS2 coat protein of UAUUAGCAAGCAAGAUCCUACAUGAGGAUCACCCAUGUGCUCGUCUUAAGCUCAGAAUUACUGAGCGCUCGUCUUAU [Winner reversed engineered 23] (Eterna round: R97, puzzle: Sensor, turn-off variant 1) only.
Response: 645

meta.source: the supplement of paper PMC9170038
